The reported numbers originate from paper PMC8458281.

TARGET_OR_TEST_SYSTEM: T1, C-X-C motif chemokine receptor 4 (CXCR4) on SupT1 cells (human (endogenous in SupT1), UniProt P61073 1-352)
T1 construct: CXCR4 as expressed on SupT1 cells; source: endogenous, on SupT1 cells
T1 sequence (P61073 whole entry): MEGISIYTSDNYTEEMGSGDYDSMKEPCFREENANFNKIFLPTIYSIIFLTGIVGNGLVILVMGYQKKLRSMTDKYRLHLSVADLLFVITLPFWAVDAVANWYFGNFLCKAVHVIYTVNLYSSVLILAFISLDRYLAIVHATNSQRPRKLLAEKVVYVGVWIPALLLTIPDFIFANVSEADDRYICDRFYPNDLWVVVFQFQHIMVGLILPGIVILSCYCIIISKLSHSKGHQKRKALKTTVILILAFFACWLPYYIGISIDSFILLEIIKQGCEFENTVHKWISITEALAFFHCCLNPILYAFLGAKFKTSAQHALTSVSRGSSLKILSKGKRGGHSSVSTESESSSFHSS
PROCEDURE_SUMMARY: flow cytometry on cells; 12G5 antibody competition on SupT1 cells; peptides in PBS with APC-conjugated 12G5 at a concentration close to its EC50, 4 °C, 2 h; MFI normalized to PBS control; IC50 by nonlinear regression
REPORTED_CONDITIONS: one partner purified
No end group written: not given here.
TEST_READOUT: IC50 (nM)

BINDER	REPORTED_RESULT
ILRWSRKLPCVS (source: synthetic peptide (Fmoc solid-phase synthesis, HPLC-purified)) [EPI-X4 JM#21]	145

I = ILRWSRKLP-NH2 (JM#21 truncated by three residues; source: synthetic peptide (Fmoc solid-phase synthesis, HPLC-purified)) [JM#21 408–416-NH2]
II = LVRYTKKVPQVSTPTL (source: synthetic peptide (Fmoc solid-phase synthesis, HPLC-purified)) [EPI-X4 (Alb408-423)]
Between these two entries, I and II , state which has the higher IC50. Response format: the label of the selected entry. II
(II: 2390 nM, I: 262 nM)

P = IVRWSKKVPCVS (also called EPI-X4 WSC02; source: synthetic peptide (Fmoc solid-phase synthesis, HPLC-purified)) [WSC02]
Q = ILRWSRK-NH2 (JM#21 truncated by five residues; source: synthetic peptide (Fmoc solid-phase synthesis, HPLC-purified)) [EPI-X4 JM#21 408–414-NH2]
R = IVRWSKKVP-NH2 (WSC02 truncated by three residues; source: synthetic peptide (Fmoc solid-phase synthesis, HPLC-purified)) [WSC02 408–416-NH2]
S = LVRYTKKVP-NH2 (source: synthetic peptide (Fmoc solid-phase synthesis, HPLC-purified)) [EPI-X4 408–416-NH2]
List these items ordered by IC50, big to small. Give your ranking as a list of the labels in the requested order. S, P, R, Q

1 = IVRWSKK-NH2 (WSC02 truncated by five residues; source: synthetic peptide (Fmoc solid-phase synthesis, HPLC-purified)) [WSC02 408–414-NH2]
2 = LVRYTKK-NH2 (source: synthetic peptide (Fmoc solid-phase synthesis, HPLC-purified)) [EPI-X4 408–414-NH2]
Compare reported IC50 values for 1 and 2 . Which is lower? Response format: the label of the selected entry. 1
(1: 469 nM, 2: 954 nM)
